Where do these numbers come from? They come from patent US20250304640A1.

In this section we review reported EC-50, HEK-Blue IL-10 reporter cells values for a set of binders.
- measured.on: T1, IL-10 receptor (IL-10R: IL10RA and IL10RB) on HEK-Blue IL-10 reporter cells (UniProt Q13651 22-578; Q08334 20-325, limits assumed)
- T1 sequence (looked up) 1: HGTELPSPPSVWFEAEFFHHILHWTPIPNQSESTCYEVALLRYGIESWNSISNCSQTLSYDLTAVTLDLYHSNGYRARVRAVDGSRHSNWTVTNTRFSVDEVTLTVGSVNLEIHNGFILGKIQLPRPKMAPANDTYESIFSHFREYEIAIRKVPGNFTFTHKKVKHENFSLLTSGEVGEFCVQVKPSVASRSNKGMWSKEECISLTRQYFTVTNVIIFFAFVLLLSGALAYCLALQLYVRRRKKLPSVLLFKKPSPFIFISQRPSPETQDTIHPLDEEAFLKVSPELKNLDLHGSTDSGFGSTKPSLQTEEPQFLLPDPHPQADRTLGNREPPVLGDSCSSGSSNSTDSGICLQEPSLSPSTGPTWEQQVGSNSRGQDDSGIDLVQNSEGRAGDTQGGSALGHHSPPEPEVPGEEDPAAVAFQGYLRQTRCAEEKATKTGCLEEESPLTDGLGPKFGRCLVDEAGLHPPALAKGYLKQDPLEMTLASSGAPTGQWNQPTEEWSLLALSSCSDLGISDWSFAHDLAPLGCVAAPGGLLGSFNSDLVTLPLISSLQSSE
- T1 sequence (looked up) 2: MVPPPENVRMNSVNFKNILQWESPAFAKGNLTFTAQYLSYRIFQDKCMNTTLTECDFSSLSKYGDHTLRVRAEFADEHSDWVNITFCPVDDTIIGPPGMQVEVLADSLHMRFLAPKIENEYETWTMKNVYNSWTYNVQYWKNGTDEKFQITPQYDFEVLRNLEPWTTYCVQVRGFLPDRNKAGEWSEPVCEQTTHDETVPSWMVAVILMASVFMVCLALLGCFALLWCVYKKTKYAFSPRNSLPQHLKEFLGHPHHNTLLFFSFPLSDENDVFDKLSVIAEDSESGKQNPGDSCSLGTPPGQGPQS
- method.description: cell-based or functional assay
Could you keep your reply to the number by itself?

Answered examples (2):
ORK10-002 (ligand) MTQSENSCTHFPGNLPNMLRDLRDAFSRVKTFFQMKDQLDNLLLKESLLEDFKGYLGCQALSEMIQFYLEEVMPQAENQDPDIKAHVNSLGENLKTLRLRLRRCHRFLPCENKSKAVEQVKNAFNKLQEKGIYKAMSEFDIFINYIEAYMTMNFGGLDYLPNMLRDLRDAFSRVKTFFQMKDQLDNLLLKESLLEDFKGYLGCQALSEMIQFYLEEVMPQAENQDPDIKAHVNSLGENLKTLRLRLRRCHRFLPCENKSKAVEQVKNAFNKLQEKGIYKAMSEFDIFINYIEAYMTM ... 3.87e-10
IL-10WT (wild-type human IL-10) (ligand) SPGQGTQSENSCTHFPGNLPNMLRDLRDAFSRVKTFFQMKDQLDNLLLKESLLEDFKGYLGCQALSEMIQFYLEEVMPQAENQDPDIKAHVNSLGENLKTLRLRLRRCHRFLPCENKSKAVEQVKNAFNKLQEKGIYKAMSEFDIFINYIEAYMTMKIRN ... 8.91e-10

// next item, EC-50, HEK-Blue IL-10 reporter cells requested
Entry Foldikine10 (ligand) MTQSENSCTHFPGNLPNMLRDLRDAFSRVKTFFQMKDQLDNLLLKESLLEDFKGYLGCQALSEMIQFYLEEVMPQAENQEPDIKAHVNSLGENLKTLRLRLRRCHRFLPCENKSKAVEQVKNAFNKLQEKGIYKAMSEFDIFINYIEAYMTMNNGGLDYLPNMLRDLRDAFSRVKTFFQMKDQLDNLLLKESLLEDFKGYLGCQALSEMIQFYLEEVMPQAENQDPDIKAHVNSLGENLKTLRLRLRRNHRFLPCENKSKAVEQVKNAFNKLQEKGIYKAMSEFDIFINYIEAYMTMKIRN needs its EC-50, HEK-Blue IL-10 reporter cells filled in; supply it.
6.01e-10
